B1: HDAC6 (parent)
chain: QYMNEGELRVLADTYDSVYLHPNS

Variants of: B1
protocol: protein stability index of a GFP-peptide fusion (GPS, HEK-293T) (PSI 1-6); higher = more stable;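 note: lentivirally expressed fusions sorted by FACS into six bins by GFP to DsRed ratio, PSI derived from sequencing read proportions per bin multiplied by bin number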
assayContext: c terminus: a fixed tail appended
Below, each of the variants is paired with its reported protein stability index value.

# mutantName, protein stability index
data = [
    ("N23T", 2.03),
    ("L20Y", 2.38),
    ("D16S", 3.08),
    ("A12F", 2.89),
    ("V10A", 1.79),
    ("V18Y", 2.21),
    ("V18R", 2.63),
    ("D13W", 1.37),
    ("S24K", 1.46),
    ("M3K", 3.39),
    ("G6Y", 2.5),
    ("Y15R", 3.05),
    ("A12R", 2.31),
    ("N4R", 2.97),
    ("S24H", 1.61),
    ("L11N", 2.32),
    ("Y19R", 1.59),
    ("H21Q", 2.11),
    ("P22H", 2.4),
    ("Q1Y", 1.69),
    ("H21N", 2.21),
    ("Y2G", 3.27),
]
